- Tested on: endosomes of Jurkat lymphocytes
- assay protocol: Endosome disruption in Jurkat lymphocytes: release of carboxyfluorescein from disulfide probe Compound 2, flow cytometry
- assay context: read-out: Potency; Table 2; EC50 ± standard deviation; Jurkat lymphocytes, disulfide-linked fluorescent probe (2.5 μM), 14 h
Non-standard residues stand in square brackets, D forms with d. Residues, ends and D or L forms follow the SMILES beside them. Aib = CC(C)(N)C(=O)O
Recorded EC50 for the following compounds

Req: If you can, please state the reported EC50 value of CC(=O)NC(C)(C)C(=O)NC(C)(C)C(=O)NC(C)(C)C(=O)NC(C)(C)C(=O)N[C@@H](Cc1c[nH]c2ccccc12)C(=O)N[C@@H](Cc1c[nH]c2ccccc12)C(=O)N[C@@H](C)C(=O)N[C@@H](Cc1c[nH]c2ccccc12)C(=O)N[C@@H](Cc1ccc(O)cc1)C(=O)N1CCC[C@H]1C(=O)N1CCC[C@H]1C(=O)N[C@H](C(=O)N[C@H](C(N)=O)C(C)C)C(C)C [Compound 78] (Ac-[Aib][Aib][Aib][Aib]WWAWYPPVV-NH2) .
Resp: 2.3 µM

Req: # get_value(readout='EC50', item= CC(C)[C@H](NC(=O)[C@@H](NC(=O)[C@@H]1CCCN1C(=O)[C@@H]1CCCN1C(=O)[C@H](Cc1c[nH]c2ccccc12)NC(=O)[C@H](Cc1c[nH]c2ccccc12)NC(=O)[C@H](C)NC(=O)[C@H](Cc1ccc(O)cc1)NC(=O)[C@H](Cc1c[nH]c2ccccc12)NC(=O)C(C)(C)NC(=O)C(C)(C)NC(=O)C(C)(C)NC(=O)C(C)(C)N)C(C)C)C(N)=O [Compound 53] (H-[Aib][Aib][Aib][Aib]WYAWWPPVV-NH2) )
Resp: 6.7 µM

Req: What value of EC50 has been recorded for this entry: CC(C)[C@H](NC(=O)[C@H](C)NC(=O)[C@@H]1CCCN1C(=O)[C@@H]1CCCN1C(=O)[C@H](Cc1c[nH]c2ccccc12)NC(=O)[C@H](Cc1ccc(O)cc1)NC(=O)[C@H](C)NC(=O)[C@H](Cc1c[nH]c2ccccc12)NC(=O)[C@H](Cc1c[nH]c2ccccc12)NC(=O)C(C)(C)NC(=O)C(C)(C)NC(=O)C(C)(C)NC(=O)C(C)(C)N)C(N)=O [Compound 51] (H-[Aib][Aib][Aib][Aib]WWAYWPPAV-NH2)
Resp: > 15 µM

====

- assay protocol: Thermodynamic solubility in PBS (pH 7.4)
- Format: physicochemical
- assay context: phosphate buffered saline, pH 7.4, Table 3; PBS pH 7.4, 24 h at 22° C.; read-out: Solubility
Non-standard residues stand in square brackets, D forms with d. Residues, ends and D or L forms follow the SMILES beside them. Aib = CC(C)(N)C(=O)O
property: solubility thermodynamic at 24 h

CC(C)[C@H](NC(=O)[C@@H](NC(=O)[C@@H]1CCCN1C(=O)[C@@H]1CCCN1C(=O)[C@H](Cc1c[nH]c2ccccc12)NC(=O)[C@H](Cc1c[nH]c2ccccc12)NC(=O)[C@H](C)NC(=O)[C@H](Cc1ccc(O)cc1)NC(=O)[C@H](Cc1c[nH]c2ccccc12)NC(=O)C(C)(C)NC(=O)C(C)(C)NC(=O)C(C)(C)NC(=O)C(C)(C)N)C(C)C)C(N)=O [Compound 53] (H-[Aib][Aib][Aib][Aib]WYAWWPPVV-NH2)
29 µM

Req: Name the recorded solubility thermodynamic at 24 h for CC(C)[C@H](NC(=O)[C@H](C)NC(=O)[C@@H]1CCCN1C(=O)[C@@H]1CCCN1C(=O)[C@H](Cc1c[nH]c2ccccc12)NC(=O)[C@H](Cc1ccc(O)cc1)NC(=O)[C@H](C)NC(=O)[C@H](Cc1c[nH]c2ccccc12)NC(=O)[C@H](Cc1c[nH]c2ccccc12)NC(=O)C(C)(C)NC(=O)C(C)(C)NC(=O)C(C)(C)NC(=O)C(C)(C)N)C(N)=O [Compound 51] (H-[Aib][Aib][Aib][Aib]WWAYWPPAV-NH2) .
Resp: 48 µM
